Reported values of kcat for individual entries
Substrate: NCCC[C@H](N)C(=O)O
protocolNotes: purified protein
conditions: 50 mM Tris pH 8.5, 20 °C, 20 mM NaCl, carbamoyl phosphate 5 mM
Just the number in s⁻¹, nothing appended.

{"columns": ["protein", "endpointLabel", "numericReadout"],
 "data": [
  ["OTC (E. coli ornithine transcarbamoylase, argI) (Escherichia coli K-12; R58A) (protein, full length, uncleaved 6xHis tag, pCA24N ASKA clone, expressed in BL21(DE3) Tuner; homotrimer of 333-residue subunits) SGFYHKHFLKLLDFTPAELNSLLQLAAKLKADKKSGKEEAKLTGKNIALIFEKDSTATRCSFEVAAYDQGARVTYLGPSGSQIGHKESIKDTARVLGRMYDGIQYRGYGQEIVETLAEYASVPVWNGLTNEFHPTQLLADLLTMQEHLPGKAFNEMTLVYAGDARNNMGNSMLEAAALTGLDLRLVAPQACWPEAALVTECRALAQQNGGNITLTEDVAKGVEGADFIYTDVWVSMGEAKEKWAERIALLREYQVNSKMMQLTGNPEVKFLHCLPAFHDDQTTLGKKMAEEFGLHGGMEVTDEVFESAASIVFDQAENRMHTIKAVMVATLSK", "kcat", 8.2]
]}

Now look at this entry.
Q) Return reported kcat; argument: Escherichia coli ornithine transcarbamoylase (OTC) variant D231A, His-tagged (enzyme, E. coli, Anabolic ornithine transcarbamoylase of E. coli, argI gene, 333-residue subunit; Made by site-directed mutagenesis of the ASKA pCA24N plasmid; 6x-His tag not cleaved; source: E. coli BL21 (DE3) Tuner, purified (HisTrap FF, Superdex 200 SEC)) SGFYHKHFLKLLDFTPAELNSLLQLAAKLKADKKSGKEEAKLTGKNIALIFEKDSTRTRCSFEVAAYDQGARVTYLGPSGSQIGHKESIKDTARVLGRMYDGIQYRGYGQEIVETLAEYASVPVWNGLTNEFHPTQLLADLLTMQEHLPGKAFNEMTLVYAGDARNNMGNSMLEAAALTGLDLRLVAPQACWPEAALVTECRALAQQNGGNITLTEDVAKGVEGADFIYTAVWVSMGEAKEKWAERIALLREYQVNSKMMQLTGNPEVKFLHCLPAFHDDQTTLGKKMAEEFGLHGGMEVTDEVFESAASIVFDQAENRMHTIKAVMVATLSK
A) 0.7

Every entry's value here was drawn from paper PMC7004355.
